Cited source for all entries: patent US20240084017A1

Below, each entry is listed alongside its reported KIM127 (Expression relative to IgG4).
target-system: human Mac-1 (integrin αMβ2, CD11b/CD18) (human, UniProt P11215 17-1152; P05107 23-769)
method: flow cytometry, HEK293/Mac-1 cells, PBS (Mock), 10 µg/ml of this antibody; binding of reporter mAb KIM127 read
quantity-measured: KIM127 (Expression relative to IgG4)

[[record]]
binder = "anti-Mac-1 antibody clone 25A04 (antibody, human IgG4, V domains shown) VH: EVQLVESGGGLVQPGGSLRLSCAASGFTFSFTAMHWVRQAPGKGLEWVSAIIYNGSEADYADSVKGRFTISRDNSKNTLYLQMNSLRAEDTAVYYCARANDYDHGCCDNYAMDYWGQGTLVTVSS VL: DIQMTQSPSSLSASVGDRVTITCRASQGIGSYLYWYQQKPGKAPKLLIYDASNLQSGVPSRFSGSGSGTDFTLTISSLQPEDFATYYCMQHGGWPLTFGQGTKVEIK"
reading = "1.58 relative to IgG4"

[[record]]
binder = "anti-Mac-1 antibody clone 27A04 (antibody, human IgG4, V domains shown) VH: QVKLQQSGPELVKPGASVKISCKASGYSFTDYNMNWVKQSNGKSLEWIGVINPNYGTTSYNQKFKGKATLTVDQSSSTAYMQLNSLTSEDSAVYYCARTYDYDGDAFAYWGQGTTVTVSS VL: DIELTQSPAIMSASPGEKVTMTCSASSSVSYMHWYQQKSGTSPKRWIYDTSKLASGVPARFSGSGSGTSYSLTISSMEAEDAATYYCQQWSSNPPTFGAGTKLELK"
reading = "1.05 relative to IgG4"

